Entry source: patent US20230406935A1

experimental system: Human PD-L1 expressed on cells (human, UniProt Q9NZQ7 19-290)
Sequence (Q9NZQ7 19-290 limits assumed): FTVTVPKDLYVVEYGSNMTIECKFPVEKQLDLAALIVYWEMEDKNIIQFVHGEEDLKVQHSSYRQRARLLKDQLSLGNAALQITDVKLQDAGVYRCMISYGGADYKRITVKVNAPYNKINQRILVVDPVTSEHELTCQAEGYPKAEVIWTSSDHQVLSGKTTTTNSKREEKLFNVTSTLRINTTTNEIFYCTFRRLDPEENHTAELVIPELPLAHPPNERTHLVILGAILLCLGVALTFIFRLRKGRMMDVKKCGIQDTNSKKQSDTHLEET
protocol notes: cell-based or functional assay
For each entry below, report its SEB assay (IFNγ release) EC50 value.
The response must be a number in nM with no trailing unit.

Ask: Note SEB assay (IFNγ release) EC50 for the binder shown: Fcab FS17-33-116 with LALA mutation (designed binder) TCPPCPAPEAAGGPSVFLFPPKPKDTLMISRTPEVTCVVVDVSHEDPEVKFNWYVDGVEVHNAKTKPREEQYNSTYRVVSVLTVLHQDWLNGKEYKCKVSNKALPAPIEKTISKAKGQPREPQVYTLPPSRDESGYWVSLTCLVKGFYPSDIVVEWESNGEPQYWAKTTPPVLDSDGSFFLYSKLTVSNWRWQMDDFSCSVMHEALHNHYTQKSLSLSPGK
Reply: 0.1

Ask: Answer with reported SEB assay (IFNγ release) EC50 of Fcab FS17-33-296 (designed binder) TCPPCPAPELLGGPSVFLFPPKPKDTLMISRTPEVTCVVVDVSHEDPEVKFNWYVDGVEVHNAKTKPREEQYNSTYRVVSVLTVLHQDWLNGKEYKCKVSNKALPAPIEKTISKAKGQPREPQVYTLPPSRDESGYWVSLTCLVKGFYPSDIVVEWESNGEPQYWAKTTPPVLDSDGSFFLYSKLTVSNWRWQVDDFSCSVMHEALHNHYTQKSLSLSPGK
Reply: 0.0869

Ask: Identify measured SEB assay (IFNγ release) EC50 associated with Fcab FS17-33-288 with LALA mutation (designed binder) TCPPCPAPEAAGGPSVFLFPPKPKDTLMISRTPEVTCVVVDVSHEDPEVKFNWYVDGVEVHNAKTKPREEQYNSTYRVVSVLTVLHQDWLNGKEYKCKVSNKALPAPIEKTISKAKGQPREPQVYTLPPSRDESGYWVSLTCLVKGFYPSDIVVEWESNGEPQYWAKTTPPVLDSDGSFFLYSKLTVSNWRWQIDDFSCSVMHEALHNHYTQKSLSLSPGK
Reply: 0.0899

Ask: Answer with reported SEB assay (IFNγ release) EC50 of Fcab FS17-33-334 with LALA mutation (designed binder) TCPPCPAPEAAGGPSVFLFPPKPKDTLMISRTPEVTCVVVDVSHEDPEVKFNWYVDGVEVHNAKTKPREEQYNSTYRVVSVLTVLHQDWLNGKEYKCKVSNKALPAPIEKTISKAKGQPREPQVYTLPPSRDESGYWVSLTCLVKGFYPSDIAVEWESNGEPQYWAKTTPPVLDSDGSFFLYSKLTVSNWRWQLDDFSCSVMHEALHNHYTQKSLSLSPGK
Reply: 0.144

Ask: Name the recorded SEB assay (IFNγ release) EC50 of the item Fcab FS17-33-296 with LALA mutation (designed binder) TCPPCPAPEAAGGPSVFLFPPKPKDTLMISRTPEVTCVVVDVSHEDPEVKFNWYVDGVEVHNAKTKPREEQYNSTYRVVSVLTVLHQDWLNGKEYKCKVSNKALPAPIEKTISKAKGQPREPQVYTLPPSRDESGYWVSLTCLVKGFYPSDIVVEWESNGEPQYWAKTTPPVLDSDGSFFLYSKLTVSNWRWQVDDFSCSVMHEALHNHYTQKSLSLSPGK in your answer.
Reply: 0.124

Ask: Return SEB assay (IFNγ release) EC50 (reported value) for this binder: Fcab FS17-33-289 (designed binder) TCPPCPAPELLGGPSVFLFPPKPKDTLMISRTPEVTCVVVDVSHEDPEVKFNWYVDGVEVHNAKTKPREEQYNSTYRVVSVLTVLHQDWLNGKEYKCKVSNKALPAPIEKTISKAKGQPREPQVYTLPPSRDESGYWVSLTCLVKGFYPSDIVVEWESNGEPQYWAKTTPPVLDSDGSFFLYSKLTVSNWRWQLDDFSCSVMHEALHNHYTQKSLSLSPGK
Reply: 0.0886

Ask: For Fcab FS17-33-289 with LALA mutation (designed binder) TCPPCPAPEAAGGPSVFLFPPKPKDTLMISRTPEVTCVVVDVSHEDPEVKFNWYVDGVEVHNAKTKPREEQYNSTYRVVSVLTVLHQDWLNGKEYKCKVSNKALPAPIEKTISKAKGQPREPQVYTLPPSRDESGYWVSLTCLVKGFYPSDIVVEWESNGEPQYWAKTTPPVLDSDGSFFLYSKLTVSNWRWQLDDFSCSVMHEALHNHYTQKSLSLSPGK , write its SEB assay (IFNγ release) EC50.
Reply: 0.108
